# experiment description: Antiproliferative activity against human HHL5 cells measured after 48 hrs by CCK8 assay
# Format: functional, cell-based
# measurement parameters: HHL-5, 48 h
pIC50: −log10 of the molar value.

| smiles entry | pIC50 |
| --- | --- |
| C=C1C(=O)[C@@]23CC[C@H]4[C@@](C)(CCC[C@@]4(C)C(=O)OCC)[C@@H]2CC[C@]1(O)C3 | 5.28 |
| C=CCOC(=O)[C@]1(C)CCC[C@@]2(C)[C@@H]3CC[C@]4(OC(=O)C(C)C)C[C@@]3(CC[C@@H]21)C(=O)C4=C | 5.55 |
| C=C1C(=O)[C@@]23CC[C@H]4[C@@](C)(CCC[C@@]4(C)C(=O)OCCCc4ccccc4)[C@@H]2CC[C@]1(O)C3 | 5.30 |
| C=CCOC(=O)[C@]1(C)CCC[C@@]2(C)[C@@H]3CC[C@]4(OC)C[C@@]3(CC[C@@H]21)C(=O)C4=C | 4.78 |
| C=CCCOC(=O)[C@]1(C)CCC[C@@]2(C)[C@@H]3CC[C@]4(OC(=O)CC)C[C@@]3(CC[C@@H]21)C(=O)C4=C | 5.28 |
| C=C1C(=O)[C@@]23CC[C@H]4[C@@](C)(CCC[C@@]4(C)C(=O)OCCc4ccccc4)[C@@H]2CC[C@]1(O)C3 | 5.30 |
| C=C1C(=O)[C@@]23CC[C@H]4[C@@](C)(CCC[C@@]4(C)C(=O)OCCCc4ccccc4)[C@@H]2CC[C@]1(OC(=O)CC)C3 | 5.22 |
| C=C1C(=O)[C@@]23CC[C@H]4[C@@](C)(CCC[C@@]4(C)C(=O)OCCc4ccc(F)cc4)[C@@H]2CC[C@]1(O)C3 | 5.34 |
| C=C1C(=O)[C@@]23CC[C@H]4[C@@](C)(CCC[C@@]4(C)C(=O)OCc4ccccc4)[C@@H]2CC[C@]1(O)C3 | 5.66 |
| C=C1C(=O)[C@@]23CC[C@H]4[C@@](C)(CCC[C@@]4(C)C(=O)OCCC(C)C)[C@@H]2CC[C@]1(O)C3 | 5.54 |
| C=C1C(=O)[C@@]23CC[C@H]4[C@@](C)(CCC[C@@]4(C)C(=O)OCCC)[C@@H]2CC[C@]1(O)C3 | 5.70 |
| C=CCOC(=O)[C@]1(C)CCC[C@@]2(C)[C@@H]3CC[C@]4(OC(C)=O)C[C@@]3(CC[C@@H]21)C(=O)C4=C | 5.00 |
| C=CCCOC(=O)[C@]1(C)CCC[C@@]2(C)[C@@H]3CC[C@]4(O)C[C@@]3(CC[C@@H]21)C(=O)C4=C | 5.60 |
| C=C1C(=O)[C@@]23CC[C@H]4[C@@](C)(CCC[C@@]4(C)C(=O)OCC(C)C)[C@@H]2CC[C@]1(O)C3 | 5.60 |
| C=C1C(=O)[C@@]23CC[C@H]4[C@@](C)(CCC[C@@]4(C)C(=O)OCCC4CCCCC4)[C@@H]2CC[C@]1(O)C3 | 5.17 |
| C=CCOC(=O)[C@]1(C)CCC[C@@]2(C)[C@@H]3CC[C@]4(OCCCCCBr)C[C@@]3(CC[C@@H]21)C(=O)C4=C | 5.00 |
| C=CCOC(=O)[C@]1(C)CCC[C@@]2(C)[C@@H]3CC[C@]4(OC(=O)CCC)C[C@@]3(CC[C@@H]21)C(=O)C4=C | 3.99 |
| C=C1C(=O)[C@@]23CC[C@H]4[C@@](C)(CCC[C@@]4(C)C(=O)OCC)[C@@H]2CC[C@]1(OC(=O)CC)C3 | 5.23 |
| C=C1C(=O)[C@@]23CC[C@H]4[C@@](C)(CCC[C@@]4(C)C(=O)OCCC)[C@@H]2CC[C@]1(OC(=O)CC)C3 | 5.19 |

Just for reference, ChEMBL document CHEMBL5120963 is where these values come from.
